B1: HEEH_KT_rd6_3632 (parent)
chain: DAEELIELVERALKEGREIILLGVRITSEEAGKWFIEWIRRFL

Variants of: B1
PROTOCOL DESCRIPTION: folding stability dG (cDNA display proteolysis); higher = more stable
CONDITION SET: PBS, room temperature
RECORDED METRIC: folding stability dG (kcal/mol)
Quick note: give the figure in kcal/mol, leave out the unit.

Worked cases, folding stability dG given:
>  <PRIMARY SEQUENCE>
DAEELIALVERALKEGREIILLGVRITSEEAGKWFIEWIRRFL [E7A]

>  <folding stability dG, kcal/mol>
3.99

$$$$
>  <PRIMARY SEQUENCE>
DAEELIELVERALKEGREIILLGVRITSEEPGKWFIEWIRRFL [A31P]

>  <folding stability dG, kcal/mol>
3.15

$$$$
>  <PRIMARY SEQUENCE>
DAEELIELVERALKEGREIILLGVRITSEEAGKWFIEWHRRFL [I39H]

>  <folding stability dG, kcal/mol>
2.73

$$$$
>  <PRIMARY SEQUENCE>
DASELIELVERALKEGREIILLGVRITSEEAGKWFIEWIRRFL [E3S]

>  <folding stability dG, kcal/mol>
3.74

$$$$
>  <PRIMARY SEQUENCE>
DAEELIELVERALKEGREIILLGVRITSEERGKWFIEWIRRFL [A31R]

>  <folding stability dG, kcal/mol>
3.61

$$$$
>  <PRIMARY SEQUENCE>
DAEELIELVERALKEGREIILLGVRITSEEAGKWFSEWIRRFL [I36S]

>  <folding stability dG, kcal/mol>
3.02

$$$$

Ask | Which folding stability dG is listed for DAEELIELVERALKEGREIILLGWRITSEEAGKWFIEWIRRFL [V24W] ?
Reply | 3.76

Ask | What value of folding stability dG has been recorded for this entry: DAEELIELVERALKEGREIILLGVRITSEHAGKWFIEWIRRFL [E30H]
Reply | 3.59

Ask | Item under review: DAEELIELVERALKEGREIILLGVRITSEEAGKGFIEWIRRFL [W34G] . Reported folding stability dG?
Reply | 3.11

Ask | Which folding stability dG value is on record for DAEELIELVERALKEGREIILLGVRITSEEAGKWFITWIRRFL [E37T] ?
Reply | 3.47

Ask | Form field: reported folding stability dG of DAEELIELVERALKEGREIILLGVRQTSEEAGKWFIEWIRRFL [I26Q]
Reply | 3.21

Ask | Returns the measured folding stability dG for the input variant. Input: DAEELIELVERALKESREIILLGVRITSEEAGKWFIEWIRRFL [G16S]
Reply | 3.49
